Assignment: determine reported inhibition for the given molecules.
molecular target: Prolyl endopeptidase-like (Mus musculus) (UniProt Q8C167); assay: PREPL inhibitors in brain proteome, biochemical, gel-based competitive ABPP, fluorescence, mouse, assay provider (AID 624480); conditions: mouse brain proteome spiked PREPL, FP-Rh gel ABPP; at 50 µM; active compounds read high
Sequence (Q8C167 whole entry, looked up): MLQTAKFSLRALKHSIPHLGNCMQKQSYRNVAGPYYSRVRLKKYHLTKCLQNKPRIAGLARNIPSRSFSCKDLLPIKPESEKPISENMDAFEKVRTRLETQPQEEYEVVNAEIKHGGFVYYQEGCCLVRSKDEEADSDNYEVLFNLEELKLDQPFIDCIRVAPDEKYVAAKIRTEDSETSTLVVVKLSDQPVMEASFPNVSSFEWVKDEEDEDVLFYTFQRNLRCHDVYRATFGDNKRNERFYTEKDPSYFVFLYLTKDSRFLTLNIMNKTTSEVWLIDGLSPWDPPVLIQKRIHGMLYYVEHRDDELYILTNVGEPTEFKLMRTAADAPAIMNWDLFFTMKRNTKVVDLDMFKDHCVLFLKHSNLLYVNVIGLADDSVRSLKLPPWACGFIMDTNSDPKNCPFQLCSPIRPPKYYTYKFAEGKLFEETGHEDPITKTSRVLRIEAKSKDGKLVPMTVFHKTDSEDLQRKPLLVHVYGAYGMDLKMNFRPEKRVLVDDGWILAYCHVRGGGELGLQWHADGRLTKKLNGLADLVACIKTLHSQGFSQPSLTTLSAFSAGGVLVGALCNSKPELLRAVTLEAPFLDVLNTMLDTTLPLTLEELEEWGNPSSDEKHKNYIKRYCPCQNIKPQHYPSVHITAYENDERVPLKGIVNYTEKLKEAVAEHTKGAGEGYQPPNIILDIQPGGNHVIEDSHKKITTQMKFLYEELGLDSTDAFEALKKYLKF
Calls of active or inactive are those of the source.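 How the source made its calls: active means inhibition of probe labeling in the gel above a set limit; inactive means inhibition at or below that limit.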

Inquiry: Please give the measured inhibition for this molecule: CCOc1ccc(CCNC(=O)c2ccc3c(=O)[nH]c4c(C(=O)NC(C)C)sc(=S)n4c3c2)cc1
Reply text: 25%

Inquiry: Please give the measured inhibition for this molecule: O=C(Nc1ccc2c(c1)OCCO2)c1cccc2nc3ccccc3nc12
Reply text: 15% (inactive)

Inquiry: Please give the measured inhibition for this molecule: N#Cc1c2c(c(-c3ccccc3)[nH]c1=O)CCCC2
Reply text: 41%

Inquiry: Please give the measured inhibition for this molecule: CC(C)Cc1[nH]c(=O)c(C#N)c2c1CCC2
Reply text: 70%

Inquiry: Please give the measured inhibition for this molecule: COc1cc2nc(Nc3ccc(C)c(C)c3)nc(N)c2cc1OC
Reply text: 17% (inactive)
